Cited source for all entries: paper PMC2922993

Molecular target: T1, BRAF-HDAC Complex 80 (BHC80)-PHD finger, Q96BD5
T1 chain: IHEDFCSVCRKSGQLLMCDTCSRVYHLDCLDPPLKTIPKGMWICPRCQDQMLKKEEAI
Assay: ITC
pKd: −log10 of the molar value.

Binder	pKd
ARTKQTARKSTG (modifications not checked) [unmodified H3 peptide]	4.71
